# measured on: Recombinant PRC2 (EZH2-Y641F) (Homo sapiens, UniProt Q15910, Y641F)
# Sequence (Q15910 whole entry Y641F): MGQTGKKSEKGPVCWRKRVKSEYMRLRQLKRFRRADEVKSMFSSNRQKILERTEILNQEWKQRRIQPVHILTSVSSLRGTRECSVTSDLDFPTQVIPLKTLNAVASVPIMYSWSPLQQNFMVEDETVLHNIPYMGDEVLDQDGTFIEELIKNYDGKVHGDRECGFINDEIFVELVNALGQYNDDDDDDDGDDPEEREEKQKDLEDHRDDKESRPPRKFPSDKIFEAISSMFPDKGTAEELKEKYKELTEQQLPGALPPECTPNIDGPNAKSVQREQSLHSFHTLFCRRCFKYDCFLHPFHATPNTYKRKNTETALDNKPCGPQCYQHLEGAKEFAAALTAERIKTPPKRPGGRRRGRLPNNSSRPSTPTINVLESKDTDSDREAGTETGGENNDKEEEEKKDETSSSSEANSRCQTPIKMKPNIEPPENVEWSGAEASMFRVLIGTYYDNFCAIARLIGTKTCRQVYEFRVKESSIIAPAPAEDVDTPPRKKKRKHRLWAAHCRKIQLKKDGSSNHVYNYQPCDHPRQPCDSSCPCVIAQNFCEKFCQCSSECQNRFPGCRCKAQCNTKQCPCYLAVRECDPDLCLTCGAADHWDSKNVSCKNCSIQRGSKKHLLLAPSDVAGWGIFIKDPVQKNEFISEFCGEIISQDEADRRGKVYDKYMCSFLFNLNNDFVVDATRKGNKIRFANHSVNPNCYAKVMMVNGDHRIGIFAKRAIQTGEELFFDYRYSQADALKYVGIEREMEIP
# Sequence (O75530 whole entry partner): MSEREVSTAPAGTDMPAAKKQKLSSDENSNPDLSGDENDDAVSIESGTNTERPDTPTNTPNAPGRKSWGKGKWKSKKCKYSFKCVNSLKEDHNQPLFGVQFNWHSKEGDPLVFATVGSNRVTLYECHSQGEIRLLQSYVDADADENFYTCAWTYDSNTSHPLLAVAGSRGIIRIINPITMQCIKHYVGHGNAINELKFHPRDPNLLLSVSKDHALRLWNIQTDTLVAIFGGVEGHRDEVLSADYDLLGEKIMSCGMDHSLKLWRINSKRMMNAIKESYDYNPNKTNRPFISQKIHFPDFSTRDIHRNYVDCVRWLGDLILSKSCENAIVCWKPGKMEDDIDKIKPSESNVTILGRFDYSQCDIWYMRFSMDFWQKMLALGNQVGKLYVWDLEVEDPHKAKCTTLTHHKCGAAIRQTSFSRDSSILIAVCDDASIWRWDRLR
# Sequence (Q15022 whole entry partner): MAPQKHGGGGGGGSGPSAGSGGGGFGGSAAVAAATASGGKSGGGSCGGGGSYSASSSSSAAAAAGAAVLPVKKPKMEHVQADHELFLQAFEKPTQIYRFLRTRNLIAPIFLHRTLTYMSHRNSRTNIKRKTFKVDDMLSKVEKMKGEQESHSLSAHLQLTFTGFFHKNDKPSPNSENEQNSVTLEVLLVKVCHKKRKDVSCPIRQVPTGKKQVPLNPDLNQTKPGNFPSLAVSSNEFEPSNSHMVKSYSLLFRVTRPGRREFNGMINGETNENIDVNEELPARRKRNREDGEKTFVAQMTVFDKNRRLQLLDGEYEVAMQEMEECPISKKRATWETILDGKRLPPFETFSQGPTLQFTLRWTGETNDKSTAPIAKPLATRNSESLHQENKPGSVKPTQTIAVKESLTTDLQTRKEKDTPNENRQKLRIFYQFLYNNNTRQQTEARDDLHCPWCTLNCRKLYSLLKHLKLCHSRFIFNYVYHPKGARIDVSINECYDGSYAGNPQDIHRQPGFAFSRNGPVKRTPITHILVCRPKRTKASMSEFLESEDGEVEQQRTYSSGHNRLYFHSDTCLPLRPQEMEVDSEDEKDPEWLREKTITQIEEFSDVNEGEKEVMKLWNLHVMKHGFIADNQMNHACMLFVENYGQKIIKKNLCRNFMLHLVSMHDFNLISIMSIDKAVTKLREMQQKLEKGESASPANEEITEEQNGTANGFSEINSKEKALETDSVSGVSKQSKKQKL
# Sequence (Q09028 whole entry partner): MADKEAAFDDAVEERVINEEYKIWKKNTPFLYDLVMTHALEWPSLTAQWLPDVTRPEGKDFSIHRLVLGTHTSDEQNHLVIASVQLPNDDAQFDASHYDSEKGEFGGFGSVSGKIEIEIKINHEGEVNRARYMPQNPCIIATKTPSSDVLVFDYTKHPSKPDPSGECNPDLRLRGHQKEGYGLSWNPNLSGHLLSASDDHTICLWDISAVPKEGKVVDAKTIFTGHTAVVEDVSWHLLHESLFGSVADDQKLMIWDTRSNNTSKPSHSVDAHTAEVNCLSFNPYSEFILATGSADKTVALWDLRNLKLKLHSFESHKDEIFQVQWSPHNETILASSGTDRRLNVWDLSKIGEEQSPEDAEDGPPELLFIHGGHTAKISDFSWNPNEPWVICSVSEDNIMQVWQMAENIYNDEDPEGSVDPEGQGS
# Sequence (Q6ZN18 whole entry partner): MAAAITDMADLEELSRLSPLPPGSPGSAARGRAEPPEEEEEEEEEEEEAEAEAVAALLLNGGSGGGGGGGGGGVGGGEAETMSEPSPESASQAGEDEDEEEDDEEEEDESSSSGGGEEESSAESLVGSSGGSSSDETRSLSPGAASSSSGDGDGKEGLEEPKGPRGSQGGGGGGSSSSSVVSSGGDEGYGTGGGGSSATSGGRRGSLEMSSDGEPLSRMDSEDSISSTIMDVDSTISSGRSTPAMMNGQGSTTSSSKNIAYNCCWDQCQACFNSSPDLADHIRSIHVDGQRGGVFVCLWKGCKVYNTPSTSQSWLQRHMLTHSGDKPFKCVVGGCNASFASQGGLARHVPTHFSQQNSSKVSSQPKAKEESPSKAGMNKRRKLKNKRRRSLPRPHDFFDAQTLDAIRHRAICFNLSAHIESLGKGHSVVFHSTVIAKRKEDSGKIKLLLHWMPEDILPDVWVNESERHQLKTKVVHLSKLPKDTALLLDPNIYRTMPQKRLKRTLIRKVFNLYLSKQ
# experimental protocol: In vitro methyltransferase activity test (LANCE Ultra)
# measurement conditions: EZH2 Y641F IC50, Recombinant PRC2 (EZH2-Y641F), LANCE Ultra detection, 3 hours reaction
endpoint label: IC50 (nM)

Examples from the recorded data:
- compound: "CCN(c1cc(-c2ccc(N3CCN(C)CC3)nc2)cc2c(NCc3c(C)cc(C)[nH]c3=O)nccc12)C1CCC(O)CC1 (stereo not drawn) [Compound Z-86]"
  value units: "nM"
  IC50: 128
- compound: "CCN(c1cc(-c2cncc(F)c2)cc2c(NCc3c(C)cc(C)[nH]c3=O)nccc12)C1CCN(C(C)C)CC1 [Compound Z-125]"
  value units: "nM"
  IC50: 22

1. CCN(c1cc(-c2ccc(N3CCNCC3)nc2)cc2c(NCc3c(C)cc(C)[nH]c3=O)nccc12)C1CCOCC1 [Compound Z-151]
2. CCN(c1cc(-c2cnc(N3CCOCC3)nc2)cc2c(NCc3c(C)cc(C)[nH]c3=O)nccc12)C1CCN(C(C)C)CC1 [Compound Z-62]
3. CCN(c1cc(-c2ccc(N3CCOCC3)nc2)cc2c(NCc3c(C)cc(C)[nH]c3=O)nccc12)C1CCC(N(C)C)CC1 (stereo not drawn) [Compound Z-39]
4. CCN(c1cc(-c2ccc(N3CCN(C)CC3)nc2)cc2c(NCc3c(OC)cc(C)[nH]c3=O)nccc12)C1CCN(C(C)C)CC1 [Compound Z-191]
Write the entries in order, lowest recorded IC50 first. Ranked list of labels, please, in the requested order.
3, 1, 2, 4

###

# measured on: Recombinant PRC2 (EZH2-Y641F) (Homo sapiens, UniProt Q15910, Y641F)
# experimental protocol: In vitro methyltransferase activity test (LANCE Ultra)
# measurement conditions: EZH2 Y641F IC50, Recombinant PRC2 (EZH2-Y641F), LANCE Ultra detection, 3 hours reaction
pIC50: −log10 of the molar value.
endpoint label: pIC50

- compound: "CCN(c1c(F)c(-c2ccc(N3CCN(C)CC3)nc2)cc2c(NCc3c(C)cc(C)nc3O)nccc12)[C@H]1CC[C@@H](N(C)C)CC1 [Compound Z-231]"
  result value: 6.76

I. CCN(c1cc(-c2cnc(N3CCN(C)CC3)nc2)cc2c(NCc3c(C)cc(C)[nH]c3=O)nccc12)C1CCC(C)(O)CC1 (stereo not drawn) [Compound Z-221]
II. CCN(c1cc(-c2ccc(N3CCNCC3)nc2)cc2c(NCc3c(C)cc(C)[nH]c3=O)nccc12)C1CCC(O)CC1 (stereo not drawn) [Compound Z-159]
Which shows the larger pIC50 value: I or II ? Selection: enter the item's label.
II
(II: 7.68, I: 6.71)

###

# measured on: Recombinant PRC2 (EZH2-Y641F) (Homo sapiens, UniProt Q15910, Y641F)
# experimental protocol: In vitro methyltransferase activity test (LANCE Ultra)
# measurement conditions: EZH2 Y641F IC50, Recombinant PRC2 (EZH2-Y641F), LANCE Ultra detection, 3 hours reaction
pIC50: −log10 of the molar value.
endpoint label: pIC50

- compound: "CCN(c1cc(-c2ccc(N3CCN(C)CC3)nc2)cc2c(NCc3c(C)cc(C)[nH]c3=O)nccc12)C1CCN(CCF)CC1"
  measured on: "Recombinant PRC2 (EZH2-Y641F) (Homo sapiens, UniProt Q15910, Y641F)"
  pIC50: 7.22

A. CCN(c1cc(-c2ccc(N3CCN(C)CC3)nc2)cc2c(NCc3c(C)cc(C)[nH]c3=O)nccc12)C1CCN(C2CC2)CC1
B. CCN(c1cc(-c2ccc(C3CC3)nc2)cc2c(NCc3c(C)cc(C)[nH]c3=O)nccc12)C1CCC(N(C)C)CC1 (stereo not shown)
C. C=C(C)c1cc(N(CC)C2CCC(N(C)C)CC2)c2ccnc(NCc3c(C)cc(C)[nH]c3=O)c2c1 (stereo not shown)
Write the entries in order, lowest recorded pIC50 first. Ranked list of labels, please, in the requested order.
A, C, B
(A: 6.49, C: 6.74, B: 7.13)

###

# measured on: Recombinant PRC2 (EZH2-Y641F) (Homo sapiens, UniProt Q15910, Y641F)
# experimental protocol: In vitro methyltransferase activity test (LANCE Ultra)
# measurement conditions: EZH2 Y641F IC50, Recombinant PRC2 (EZH2-Y641F), LANCE Ultra detection, 3 hours reaction
pIC50: −log10 of the molar value.
endpoint label: pIC50

- molecule: "CCN(c1cc(-c2ccc(N3CCOCC3)nc2)cc2c(NCc3c(C)cc(C)[nH]c3=O)nccc12)C1CCN(C2CC2)CC1 [Compound Z-87]"
  result value: 6.32

1. CCN(c1cc(-c2ccc(N3CCN(C)CC3)nc2)cc2c(NCc3c(C)cc(C)[nH]c3=O)nccc12)C1CCNCC1 [Compound Z-56]
2. CCN(c1cc(-c2cnc(CN3CCOCC3)nc2)cc2c(NCc3c(C)cc(C)[nH]c3=O)nccc12)C1CCOCC1 [Compound Z-121]
3. CCN(c1cc(-c2ccc(CN3CCN(C)CC3)cc2)cc2c(NCc3c(C)cc(C)[nH]c3=O)nccc12)[C@H]1CC[C@H](N(C)C)CC1 [Compound Z-54]
Write the entries in order, lowest recorded pIC50 first. Ranked list of labels, please, in the requested order.
2, 3, 1

###

# measured on: Recombinant PRC2 (EZH2-Y641F) (Homo sapiens, UniProt Q15910, Y641F)
# experimental protocol: In vitro methyltransferase activity test (LANCE Ultra);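 also: compounds tested as an 8-point threefold dilution series, fluorescence read after 1 h detection step at room temperature, IC50 derived from a four-parameter curve fit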
# measurement conditions: EZH2 Y641F IC50, Recombinant PRC2 (EZH2-Y641F), LANCE Ultra detection, 3 hours reaction
endpoint label: IC50 (nM)

Examples from the recorded data:
- molecule: "CCN(c1cc(N2CCN(C3CCOCC3)CC2)cc2c(NCc3c(C)cc(C)[nH]c3=O)nccc12)C1CCC(N(C)C)CC1 (centres unmarked)"
  measured on: "Recombinant PRC2 (EZH2-Y641F) (Homo sapiens, UniProt Q15910, Y641F)"
  result value: 307
- molecule: "CCN(c1cc(-c2ccc(N3CCN(C)CC3)nc2)cc2c(NCc3c(C)cc(C)[nH]c3=O)nccc12)C1CCC(F)(F)CC1"
  measured on: "Recombinant PRC2 (EZH2-Y641F) (Homo sapiens, UniProt Q15910, Y641F)"
  result value: 159

P. CCN(c1cc(C(=O)NC2CCN(C)CC2)cc2c(NCc3c(C)cc(C)[nH]c3=O)nccc12)C1CCC(N(C)C)CC1 (centres unmarked)
Q. CCN(c1cc(-c2cccnc2)cc2c(NCc3c(C)cc(C)[nH]c3=O)nccc12)[C@H]1CC[C@@H](N(C)C)CC1
R. CCN(c1cc(-c2ccc(N3CCN(C)CC3)nc2)cc2c(NCc3c(C)cc(C)[nH]c3=O)nccc12)C1CCNC(C)C1 (centres unmarked)
S. CCN(c1cc(-c2nccn2C)cc2c(NCc3c(C)cc(C)[nH]c3=O)nccc12)C1CCOCC1
T. CCN(c1cc(-c2ccc(CN3CCNCC3)cc2)cc2c(NCc3c(C)cc(C)[nH]c3=O)nccc12)C1CCC(N(C)C)CC1 (centres unmarked)
Given 5 molecules, produce a descending ranking by IC50. Ranked list of labels, please, in the requested order.
S, P, T, R, Q

P. CCN(c1cc(-c2ccc(C(=O)N3CCOCC3)nc2)cc2c(NCc3c(C)cc(C)[nH]c3=O)nccc12)C1CCN(C(C)C)CC1
Q. CCN(c1cc(-c2ccc(N3CCNCC3)nc2)cc2c(NCc3c(C)cc(C)[nH]c3=O)nccc12)C1CCC(NC(C)=O)CC1 (centres unmarked)
R. CCN(c1cc(-c2cccnc2)cc2c(NCc3c(C)cc(C)[nH]c3=O)nccc12)C1CCN(C(C)C)CC1
Write the entries in order, lowest recorded IC50 first. Ranked list of labels, please, in the requested order.
Q, P, R
(Q: 37 nM, P: 75 nM, R: 150 nM)

A. CCN(c1cc(-c2ccc(CN3CCN(C)CC3)nc2)cc2c(NCc3c(C)cc(C)[nH]c3=O)nccc12)C1CCC(F)(F)CC1
B. CCN(c1cc(-c2cnc(CN3CCN(C)CC3)c(F)c2)cc2c(NCc3c(C)cc(C)[nH]c3=O)nccc12)C1CCOCC1
Which shows the larger IC50 value: A or B ? Selection: enter the item's label.
A
(A: 197 nM, B: 41 nM)

###

# System: Pfeiffer cells
# experimental protocol: Cell proliferation test (cell counting kit-8, 6 days)
# Format: cell-based
# measurement conditions: Homo sapiens, Pfeiffer, 144 h, 6 days' growth
endpoint label: pIC50
Keep in mind that pIC50 stands for -log10 of concentration in molar terms.

- molecule: "CCN(c1cc(-c2cnc(N3CCN(C)CC3)nc2)cc2c(NCc3c(C)cc(C)[nH]c3=O)nccc12)C1CCC(O)CC1 (stereo not shown) [Compound Z-89]"
  pIC50: 6.40

# return pIC50 of CCN(c1cc(-c2ccc(N3CCN(C)CC3)nc2)cc2c(NCc3c(C)cc(C)[nH]c3=O)nccc12)C1CCC(F)(F)CC1 [Compound Z-94] (system: Pfeiffer cells)
6.42

# return pIC50 of CCN(c1cc(OCCOC)cc2c(NCc3c(C)cc(C)[nH]c3=O)nccc12)C1CCC(N(C)C)CC1 (stereo not shown) [Compound Z-206] (system: Pfeiffer cells)
6.63
